# System: A549-ACTB-RAB5A
# ASSAY_DETAILS: phenotypically active (imaging signature differs from DMSO and reproducible) at any of 0.3-9 uM (binary (1 = active, 0 = inactive)); higher = active
# CONDITION: treatment time: 24 h
Where a name gives a salt, the structure may show the parent alone.
Classes used: yes (1) = active, no (0) = inactive

{"COMPOUND": "COc1ccccc1OCC(O)CN1CCN(CC(=O)Nc2c(C)cccc2C)CC1 (configuration not stated) [ranolazine]", "CAT": "no (0)"}
{"COMPOUND": "CCC[C@H](N[C@@H](C)C(=O)N1[C@H](C(=O)O)C[C@@H]2CCCC[C@@H]21)C(=O)OCC [perindopril]", "CAT": "no (0)"}
{"COMPOUND": "Cc1cc(C)cc(C(=O)NOCCCCCC(=O)NO)c1", "CAT": "yes (1)"}
{"COMPOUND": "C/C(=N/NC(=N)N)c1ccc(NC(=O)Nc2ccc(/C(C)=N/NC(=N)N)cc2)cc1", "CAT": "yes (1)"}
{"COMPOUND": "Cc1cc(C(=O)NNCc2ccccc2)no1 [isocarboxazid]", "CAT": "no (0)"}
{"COMPOUND": "COc1ccc(C(=O)Nc2sc3c(c2C(N)=O)CCCC3)cc1OC", "CAT": "no (0)"}
{"COMPOUND": "CCCC(CCC)C(=O)O [Valproic acid, sodium salt]", "CAT": "no (0)"}

* * *

# Test system: HepG2-TUBA1B-RELA
# ASSAY_DETAILS: phenotypically active (imaging signature differs from DMSO and reproducible) at any of 0.3-9 uM (binary (1 = active, 0 = inactive)); higher = active
# CONDITION: treatment time: 24 h
Reported phenotypically active values for a set of compounds
READOUT_KIND: phenotypically active

{"COMPOUND": "Cc1cc(/N=N/c2ccc(S(=O)(=O)Nc3ccccn3)cc2)c(N)cc1O", "TESTED_SYSTEM": "HepG2-TUBA1B-RELA", "VALUE_MEASURED": 1}
{"COMPOUND": "Cc1c(F)cc(C(=O)NC2CC2)cc1-c1ccc(C(=O)NCC(C)(C)C)cn1 [losmapimod]", "TESTED_SYSTEM": "HepG2-TUBA1B-RELA", "VALUE_MEASURED": 0}
{"COMPOUND": "S=P(N1CC1)(N1CC1)N1CC1 [thiotepa]", "TESTED_SYSTEM": "HepG2-TUBA1B-RELA", "VALUE_MEASURED": 0}
{"COMPOUND": "OCC(CO)N[C@H]1C[C@](O)(CO)[C@@H](O)[C@H](O)[C@H]1O [Voglibose]", "TESTED_SYSTEM": "HepG2-TUBA1B-RELA", "VALUE_MEASURED": 0}
{"COMPOUND": "Cc1cc2c(F)c(Oc3ncnn4cc(OC[C@@H](C)OC(=O)[C@H](C)N)c(C)c34)ccc2[nH]1 [brivanib-alaninate]", "TESTED_SYSTEM": "HepG2-TUBA1B-RELA", "VALUE_MEASURED": 1}
{"COMPOUND": "CC(C)(C)NC[C@H](O)COc1nsnc1N1CCOCC1 [timolol]", "TESTED_SYSTEM": "HepG2-TUBA1B-RELA", "VALUE_MEASURED": 0}
{"COMPOUND": "Nc1ncnc2c1c(-c1cnc3[nH]ccc3c1)nn2C1CCCC1", "TESTED_SYSTEM": "HepG2-TUBA1B-RELA", "VALUE_MEASURED": 1}
{"COMPOUND": "CC(CCc1ccccc1)NCC(O)c1ccc(O)c(C(N)=O)c1 (stereo not drawn) [labetalol]", "TESTED_SYSTEM": "HepG2-TUBA1B-RELA", "VALUE_MEASURED": 0}
{"COMPOUND": "CC1(C)NC(=O)N(c2ccc([N+](=O)[O-])c(C(F)(F)F)c2)C1=O [nilutamide]", "TESTED_SYSTEM": "HepG2-TUBA1B-RELA", "VALUE_MEASURED": 0}
{"COMPOUND": "Clc1ccc2c(c1)C(N1CCNCC1)=Nc1ccccc1O2 [amoxapine]", "TESTED_SYSTEM": "HepG2-TUBA1B-RELA", "VALUE_MEASURED": 1}
{"COMPOUND": "Nc1nc(S)c2[nH]cnc2n1 [thioguanine]", "TESTED_SYSTEM": "HepG2-TUBA1B-RELA", "VALUE_MEASURED": 1}
{"COMPOUND": "Cc1ncc([N+](=O)[O-])n1CCOC(=O)NC(Nc1ncccn1)C(Cl)(Cl)Cl (stereo not drawn) [Apcin]", "TESTED_SYSTEM": "HepG2-TUBA1B-RELA", "VALUE_MEASURED": 0}
{"COMPOUND": "CN(C)CCCN1c2ccccc2Sc2ccc(Cl)cc21 [chlorpromazine]", "TESTED_SYSTEM": "HepG2-TUBA1B-RELA", "VALUE_MEASURED": 1}

Data provenance: the supplement of paper PMC7411054
